Molecular target: mineralocorticoid receptor (Rattus norvegicus, UniProt P22199)
Construct: mineralocorticoid receptor from rat kidney homogenate; from tissue; host or cells: rat kidney homogenate
Sequence (P22199 whole entry): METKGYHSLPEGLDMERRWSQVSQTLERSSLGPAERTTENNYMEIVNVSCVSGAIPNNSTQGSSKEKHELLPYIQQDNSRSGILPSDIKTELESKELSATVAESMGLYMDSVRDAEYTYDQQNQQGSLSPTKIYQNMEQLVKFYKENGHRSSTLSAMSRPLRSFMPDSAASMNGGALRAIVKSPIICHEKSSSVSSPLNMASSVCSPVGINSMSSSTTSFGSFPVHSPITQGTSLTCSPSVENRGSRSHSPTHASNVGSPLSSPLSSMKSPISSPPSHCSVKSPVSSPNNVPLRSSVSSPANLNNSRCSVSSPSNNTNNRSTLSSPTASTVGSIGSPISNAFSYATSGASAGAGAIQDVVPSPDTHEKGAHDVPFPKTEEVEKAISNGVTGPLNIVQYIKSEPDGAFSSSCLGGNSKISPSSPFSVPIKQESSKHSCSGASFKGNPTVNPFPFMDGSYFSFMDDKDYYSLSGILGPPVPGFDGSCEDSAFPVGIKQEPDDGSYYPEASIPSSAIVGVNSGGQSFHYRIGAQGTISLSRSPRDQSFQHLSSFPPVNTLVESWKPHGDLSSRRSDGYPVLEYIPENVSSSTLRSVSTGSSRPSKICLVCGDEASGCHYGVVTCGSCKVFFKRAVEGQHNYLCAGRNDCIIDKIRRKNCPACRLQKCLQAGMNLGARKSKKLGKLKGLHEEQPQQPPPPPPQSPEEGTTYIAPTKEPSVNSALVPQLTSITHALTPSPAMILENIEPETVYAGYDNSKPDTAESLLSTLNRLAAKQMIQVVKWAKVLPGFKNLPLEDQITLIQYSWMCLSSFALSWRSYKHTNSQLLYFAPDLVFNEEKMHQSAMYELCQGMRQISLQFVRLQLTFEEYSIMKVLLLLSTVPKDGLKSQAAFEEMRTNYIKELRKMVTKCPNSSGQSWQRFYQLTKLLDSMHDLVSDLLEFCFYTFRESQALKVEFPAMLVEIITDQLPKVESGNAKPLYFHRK
Assay: mineralocorticoid receptor binding, rat kidney homogenate
Conditions: 3H-aldosterone = 1
Source text: This object is achieved by the provision of the 18-methyl-15β,16β-methylene-19-nor-20-spirox-4-en-3-ones of the general formula I described herein.
Reported MR [KF] by item:

MOLECULE: CC[C@]12CC[C@H]3[C@H]([C@@H]1[C@@H]1C[C@@H]1[C@@]21CCCO1)[C@H](C1CC1)CC1=CC(=O)CC[C@@H]13
MR [KF]: 0.7
--
MOLECULE: CC[C@]12CC[C@H]3[C@H]([C@@H]1[C@@H]1C[C@@H]1[C@@]21CCCO1)[C@H](C)CC1=CC(=O)CC[C@@H]13
MR [KF]: 0.6
--
MOLECULE: C[C@]12CCC(=O)C=C1[C@@H]1C[C@@H]1[C@H]1[C@@H]3[C@@H]4C[C@@H]4[C@@]4(CCC(=O)O4)[C@@]3(C)CC[C@@H]12 [DRSP, reference compound]
MR [KF]: 0.3
--
MOLECULE: CC[C@]12CC[C@H]3[C@@H](CCC4=C(C)C(=O)CC[C@@H]43)[C@@H]1[C@@H]1C[C@@H]1[C@@]21CCCO1
MR [KF]: 7.6
--
MOLECULE: CC[C@]12CC[C@H]3[C@@H]([C@H]4C[C@H]4C4=C(Cl)C(=O)CC[C@@H]43)[C@@H]1[C@@H]1C[C@@H]1[C@@]21CCCO1
MR [KF]: 88
--
MOLECULE: CCC12CCC3C4CCC(=O)C=C4CC(C)C3C1C1CC1C21CCCO1 (stereo not drawn)
MR [KF]: 0.5

----------
Target: progesterone receptor (Oryctolagus cuniculus)
Construct: cytosol from rabbit uterus homogenate; from tissue; host or cells: rabbit uterus (cytosol of homogenate)
Sequence (P06186 whole entry): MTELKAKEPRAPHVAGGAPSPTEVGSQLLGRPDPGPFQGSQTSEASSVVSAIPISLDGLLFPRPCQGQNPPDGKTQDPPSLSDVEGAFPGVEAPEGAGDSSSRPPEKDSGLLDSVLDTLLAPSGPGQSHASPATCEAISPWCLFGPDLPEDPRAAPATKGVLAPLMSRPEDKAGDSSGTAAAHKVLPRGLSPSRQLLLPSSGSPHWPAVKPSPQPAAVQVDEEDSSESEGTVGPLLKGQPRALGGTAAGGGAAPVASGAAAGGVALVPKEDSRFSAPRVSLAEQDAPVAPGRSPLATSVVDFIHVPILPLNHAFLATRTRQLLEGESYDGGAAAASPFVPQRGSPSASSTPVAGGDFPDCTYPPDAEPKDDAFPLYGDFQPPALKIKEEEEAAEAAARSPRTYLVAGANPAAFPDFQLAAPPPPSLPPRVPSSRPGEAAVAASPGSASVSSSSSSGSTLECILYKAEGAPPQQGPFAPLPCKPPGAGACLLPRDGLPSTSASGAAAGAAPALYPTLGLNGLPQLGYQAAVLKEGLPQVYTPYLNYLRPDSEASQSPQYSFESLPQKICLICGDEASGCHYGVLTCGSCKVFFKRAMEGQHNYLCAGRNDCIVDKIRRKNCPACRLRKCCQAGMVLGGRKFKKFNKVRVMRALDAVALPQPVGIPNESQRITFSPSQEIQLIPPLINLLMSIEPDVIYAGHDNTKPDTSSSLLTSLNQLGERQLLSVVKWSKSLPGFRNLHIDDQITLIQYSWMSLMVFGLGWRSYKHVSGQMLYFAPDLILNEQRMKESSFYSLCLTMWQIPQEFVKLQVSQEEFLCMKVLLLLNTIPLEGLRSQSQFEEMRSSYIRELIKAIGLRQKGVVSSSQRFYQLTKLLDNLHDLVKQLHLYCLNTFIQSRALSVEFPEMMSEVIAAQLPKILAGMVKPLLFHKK
Assay: progesterone receptor binding assay using cytosol from rabbit uterus homogenate
Details: 3H-progesterone = 1

COMPOUND: CC[C@]12CC[C@H]3[C@H]([C@@H]1[C@@H]1C[C@@H]1[C@@]21CCCO1)[C@H](C1CC1)CC1=CC(=O)CC[C@@H]13
STUDY_SYSTEM: progesterone receptor (Oryctolagus cuniculus)
PR [KF]: 2.355

COMPOUND: CCC12CCC3C4CCC(=O)C=C4CC(C)C3C1C1CC1C21CCCO1 (stereo not drawn)
STUDY_SYSTEM: progesterone receptor (Oryctolagus cuniculus)
PR [KF]: 1.08

COMPOUND: CCC1CC2=CC(=O)CCC2C2CCC3(CC)C(C4CC4C34CCCO4)C12 (stereo not drawn)
STUDY_SYSTEM: progesterone receptor (Oryctolagus cuniculus)
PR [KF]: 4.295

COMPOUND: CCC12CCC3C4CCC(=O)C(C)=C4C4CC4C3C1C1CC1C21CCCO1 (stereo not drawn)
STUDY_SYSTEM: progesterone receptor (Oryctolagus cuniculus)
PR [KF]: 3.45

COMPOUND: CC[C@]12CC[C@H]3[C@@H]([C@H]4C[C@H]4C4=C(Cl)C(=O)CC[C@@H]43)[C@@H]1[C@@H]1C[C@@H]1[C@@]21CCCO1
STUDY_SYSTEM: progesterone receptor (Oryctolagus cuniculus)
PR [KF]: 3.01

COMPOUND: CC[C@]12CC[C@H]3[C@@H](CCC4=C(C)C(=O)CC[C@@H]43)[C@@H]1[C@@H]1C[C@@H]1[C@@]21CCCO1
STUDY_SYSTEM: progesterone receptor (Oryctolagus cuniculus)
PR [KF]: 3.245

COMPOUND: C[C@]12CCC(=O)C=C1[C@@H]1C[C@@H]1[C@H]1[C@@H]3[C@@H]4C[C@@H]4[C@@]4(CCC(=O)O4)[C@@]3(C)CC[C@@H]12 [DRSP, reference compound]
STUDY_SYSTEM: progesterone receptor (Oryctolagus cuniculus)
PR [KF]: 2.5

COMPOUND: CC[C@]12CCC3C4CCC(=O)C=C4C4CC4C3C1[C@@H]1C[C@@H]1[C@@]21CCCO1 (stereo partly drawn)
STUDY_SYSTEM: progesterone receptor (Oryctolagus cuniculus)
PR [KF]: 2.34

COMPOUND: CC[C@]12CC[C@H]3[C@H]([C@@H]1[C@@H]1C[C@@H]1[C@@]21CCCO1)[C@H](C)CC1=CC(=O)CC[C@@H]13
STUDY_SYSTEM: progesterone receptor (Oryctolagus cuniculus)
PR [KF]: 1.13
